Molecular target: human recombinant ETA receptors (Homo sapiens, UniProt P25101)
Sequence (P25101 21-427): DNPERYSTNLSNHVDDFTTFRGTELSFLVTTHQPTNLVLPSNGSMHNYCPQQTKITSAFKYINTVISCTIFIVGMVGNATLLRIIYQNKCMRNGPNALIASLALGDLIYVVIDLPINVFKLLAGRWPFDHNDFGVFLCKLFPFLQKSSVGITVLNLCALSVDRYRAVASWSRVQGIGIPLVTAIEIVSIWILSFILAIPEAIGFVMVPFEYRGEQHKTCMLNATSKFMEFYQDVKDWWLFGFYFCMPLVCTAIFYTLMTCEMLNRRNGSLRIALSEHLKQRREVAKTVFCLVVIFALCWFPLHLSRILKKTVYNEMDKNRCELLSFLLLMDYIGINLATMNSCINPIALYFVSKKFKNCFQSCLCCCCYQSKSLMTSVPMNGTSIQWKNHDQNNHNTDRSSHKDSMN
Experiment: Inhibition of [125I]ET-1 binding to membranes from CHO cells carrying human ETA receptors; also: 2.5% DMSO
Field: IC50. Provide a value for each of the compounds that follow.
The answer is to be given in nM; state only the numeric part.

[Q] GET /values?readout=IC50&item= Cc1ccc(-c2c(NS(C)(=O)=O)ncnc2OCCOc2ncc(Br)cn2)cc1 [Example 47]
[A] 2.9

[Q] // next record CCCCS(=O)(=O)Nc1ncnc(OCCOc2ncc(Br)cn2)c1-c1ccc(Br)cc1 [Example 81]
[A] 0.54

[Q] Subsequent entry: Cc1ccc(-c2c(NS(C)(=O)=O)ncnc2OCCCOc2ncc(Br)cn2)cc1 [Example 50]
[A] 397

[Q] Do the same for CCCS(=O)(=O)Nc1nc(-c2ncccn2)nc(OCCOc2ncc(SC)cn2)c1Oc1ccccc1OC [Example 9] please
[A] 5.2

[Q] // query: CCS(=O)(=O)Nc1ncnc(OCCOc2ncc(OC)cn2)c1-c1ccc(Br)cc1 [Example 59]
[A] 6.8

[Q] Record: CCS(=O)(=O)Nc1ncnc(OCCOc2ncc(Br)cn2)c1Oc1ccccc1OC [Example 40]
[A] 19

[Q] Another: CCCCS(=O)(=O)Nc1ncnc(OCCOc2ncc(SC)cn2)c1-c1ccc(Br)cc1 [Example 83]
[A] 0.49

[Q] Same question, COc1cnc(OCCOc2nc(-c3ncccn3)nc(NS(C)(=O)=O)c2Oc2ccccc2OC)nc1 [Example 15] this time
[A] 125

[Q] Thanks! And COc1ccccc1Oc1c(NS(C)(=O)=O)nc(-c2ncccn2)nc1OCCOc1ncc(SC)cn1 [Example 16] ?
[A] 12

[Q] Okay, and COc1cnc(OCCOc2ncnc(NS(C)(=O)=O)c2Oc2ccccc2OC)nc1 [Example 18] ?
[A] 205

[Q] Also need CS(=O)(=O)Nc1ncnc(OCCOc2ncc(Br)cn2)c1-c1ccc(Br)cc1 [Example 53] , thanks.
[A] 1.1

[Q] Can you handle CCCCS(=O)(=O)Nc1ncnc(OCCOc2ncc(Br)cn2)c1-c1ccc(C)cc1 [Example 74] next?
[A] 0.63

[Q] Cool, now CS(=O)(=O)Nc1ncnc(OCCOc2ncc(C3CC3)cn2)c1-c1ccc(Br)cc1 [Example 57]
[A] 6.9

[Q] Try this compound next: COc1ccccc1Oc1c(NS(C)(=O)=O)ncnc1OCCOc1ncc(Br)cn1 [Example 17]
[A] 33

[Q] Here is the next compound: CCS(=O)(=O)Nc1ncnc(OCCOc2ncc(OC)cn2)c1-c1ccc(C)cc1 [Example 3]
[A] 38.2

[Q] Then this compound: CCS(=O)(=O)Nc1nc(C2CC2)nc(OCCOc2ncc(S(C)(=O)=O)cn2)c1-c1ccc(C)cc1 [Example 65]
[A] 1.4

[Q] Here is the next compound: CCS(=O)(=O)Nc1ncnc(OCCOc2ncc(S(C)(=O)=O)cn2)c1-c1ccc(Br)cc1 [Example 61]
[A] 1.1

[Q] Now try CCS(=O)(=O)Nc1ncnc(OCCOc2ncc(Br)cn2)c1-c1ccc(Br)cc1 [Example 58] .
[A] 0.66

[Q] Entry CCCS(=O)(=O)Nc1nc(-c2ncccn2)nc(OCCOc2ncc(OC)cn2)c1Oc1ccccc1OC [Example 10] please
[A] 42.6

[Q] What do you get for CCS(=O)(=O)Nc1nc(-c2ncccn2)nc(OCCOc2ncc(OC)cn2)c1Oc1ccccc1OC [Example 12] ?
[A] 59

[Q] Now this one: CCCS(=O)(=O)Nc1ncnc(OCCOc2ncc(SC)cn2)c1-c1ccc(C)cc1 [Example 5]
[A] 3.6

[Q] CCS(=O)(=O)Nc1ncnc(OCCOc2ncc(S(C)(=O)=O)cn2)c1-c1ccc(Cl)cc1 [Example 69] , same question.
[A] 1.2

[Q] Try this compound next: CCS(=O)(=O)Nc1nc(-c2ncccn2)nc(OCCOc2ncc(Br)cn2)c1Oc1ccccc1OC [Example 7]
[A] 16.3

[Q] Try this compound too: COc1ccccc1Oc1c(NS(C)(=O)=O)nc(-c2ncccn2)nc1OCCOc1ncc(Br)cn1 [Example 14]
[A] 27

[Q] Another compound to look at: CCCCS(=O)(=O)Nc1ncnc(OCCOc2ncc(SC)cn2)c1Oc1cccc(OC)c1 [Example 30]
[A] 2.3
